The following compounds are shown together with reported pEC50 values.
- Target entity: STING (Homo sapiens, UniProt Q86WV6, G230A/H232R/R293Q/R71H)
- Sequence (Q86WV6 whole entry R71H/G230A/H232R/R293Q): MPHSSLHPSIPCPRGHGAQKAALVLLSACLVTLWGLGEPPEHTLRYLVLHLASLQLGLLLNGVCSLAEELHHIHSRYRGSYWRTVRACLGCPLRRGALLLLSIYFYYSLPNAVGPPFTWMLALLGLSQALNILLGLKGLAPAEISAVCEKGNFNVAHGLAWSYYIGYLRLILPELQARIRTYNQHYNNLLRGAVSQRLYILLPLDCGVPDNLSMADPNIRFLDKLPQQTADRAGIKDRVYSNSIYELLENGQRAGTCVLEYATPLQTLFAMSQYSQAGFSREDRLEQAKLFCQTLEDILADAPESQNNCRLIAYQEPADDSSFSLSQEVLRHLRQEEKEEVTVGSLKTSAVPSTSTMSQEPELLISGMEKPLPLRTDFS
- Method: STING reporter assay in THP1-Dual KO-IFNAR2 cells (2′3′cGAMP stimulation, luciferase reporter)
- Settings: 15 μM 2′3′cGAMP stimulation, 24 h, read-out: Pharmaron, THP1_IFNAR2 STING 24 h Luci Normalized: GeoMean EC50
pEC50: −log10 of the molar value.

Worked cases, answers included:
INSERT INTO assay_data (compound, target_entity, result) VALUES
  ('CC[C@@H](O)C(=O)Nc1c[nH]c2ccc(O[C@H]3C[C@H](c4ccc(C(F)(F)F)cc4)C3)cc12 [Compound 429]', 'STING (Homo sapiens, UniProt Q86WV6, G230A/H232R/R293Q/R71H)', '6.00 to 6.70'),
  ('O=C(Nc1c[nH]c2ccc(OCCC3CCN(CC(F)(F)F)CC3)cc12)C1CCC1 [Compound 129]', 'STING (Homo sapiens, UniProt Q86WV6, G230A/H232R/R293Q/R71H)', '6.00 to 6.70'),
  ('N#CC1CCC1C(=O)Nc1c[nH]c2ccc(OCCc3ccc(C(F)(F)F)cc3)cc12 (stereo not shown) [Compound 187]', 'STING (Homo sapiens, UniProt Q86WV6, G230A/H232R/R293Q/R71H)', '6.00 to 6.70');

Now for the compound whose pEC50 we want.
Here COCC1(C(=O)Nc2c[nH]c3ccc(OCC[C@@H]4C[C@@H]5CN(CC(F)(F)F)C[C@@H]5C4)cc23)CC1 [Compound 305] was tested on STING (Homo sapiens, UniProt Q86WV6, G230A/H232R/R293Q/R71H), and its pEC50 came to 5.30 to 6.00

----------
The following molecules are shown together with reported EC50 values.
- Target entity: STING (Homo sapiens, UniProt Q86WV6, G230A/H232R/R293Q/R71H)
- Method: STING reporter assay in THP1-Dual KO-IFNAR2 cells (2′3′cGAMP stimulation, luciferase reporter)
- Type: cell-based
- Settings: 15 μM 2′3′cGAMP stimulation, 24 h, read-out: Pharmaron, THP1_IFNAR2 STING 24 h Luci Normalized: GeoMean EC50

Worked cases, answers included:
INSERT INTO results (smiles_structure, result) VALUES
  ('O=C(Nc1c[nH]c2ccc(CCc3ccc(C(F)(F)F)cc3)cc12)C1CCC1', '1 to 5 µM'),
  ('CC(=O)Nc1c[nH]c2c(F)cc(OCCC3CCN(CC(F)(F)F)CC3)cc12', '5 to 100 µM'),
  ('CC(=O)Nc1c[nH]c2ccc(OCCn3cc(C(F)(F)F)cn3)cc12', '5 to 100 µM');

In plain terms, O=C(Nc1c[nH]c2ccc(O[C@H]3C[C@H](c4ccc(C(F)(F)F)nc4)C3)cc12)[C@H]1C[C@@H](CO)C1 has a documented EC50 of 0.2 to 1 µM

----------
- Target entity: STING (Homo sapiens, UniProt Q86WV6, G230A/H232R/R293Q/R71H)
- Method: STING reporter assay in THP1-Dual KO-IFNAR2 cells (2′3′cGAMP stimulation, luciferase reporter)
- Settings: 15 μM 2′3′cGAMP stimulation, 24 h, read-out: Pharmaron, THP1_IFNAR2 STING 24 h Luci Normalized: GeoMean EC50
Outcome measure: EC50

Worked cases, answers included:
INSERT INTO assay_data (compound, outcome_measure, result) VALUES
  ('CC(=O)Nc1c[nH]c2ccc(CCOc3cnc4cccc(Cl)c4c3)cc12', 'EC50', '1000 to 5000 nM'),
  ('O=C(Nc1c[nH]c2ccc(OCC[C@@H]3C[C@@H]4CN(CC(F)(F)F)C[C@@H]4C3)cc12)C1CC(F)(F)C1', 'EC50', '40 to 200 nM'),
  ('O=C(Nc1c[nH]c2ccc(OCCc3ccc(C(F)(F)F)cc3)cc12)[C@H]1C[C@H](CO)C1', 'EC50', '40 to 200 nM'),
  ('O=C(Nc1c[nH]c2ccc(OCCc3ccc(C(F)(F)F)cc3)cc12)C1CC(CO)C1 (centres unmarked)', 'EC50', '40 to 200 nM'),
  ('N#C[C@@H]1C[C@@H]1C(=O)Nc1c[nH]c2ccc(OCCc3ccc(C(F)(F)F)cc3)cc12', 'EC50', '200 to 1000 nM');

Here CC(=O)Nc1c[nH]c2ccc(OCC3CCC(C(F)(F)F)CC3)cc12 (centres unmarked) was tested on STING (Homo sapiens, UniProt Q86WV6, G230A/H232R/R293Q/R71H), and its EC50 came to 200 to 1000 nM

Here CC(=O)Nc1c[nH]c2ccc(CCOc3ccc4ncccc4c3)cc12 was tested on STING (Homo sapiens, UniProt Q86WV6, G230A/H232R/R293Q/R71H), and its EC50 came to 5000 to 100000 nM

Here C[C@]1(C(=O)Nc2c[nH]c3ccc(OCc4ccc(C(F)(F)F)cc4)cc23)CC[C@H](O)CC1 was tested on STING (Homo sapiens, UniProt Q86WV6, G230A/H232R/R293Q/R71H), and its EC50 came to 200 to 1000 nM
